assay: Hemolytic activity in sheep erythrocytes assessed as hemolysis incubated for 1 hr by microplate reader based analysis; format: toxicity, cell-based, Ovis aries, Erythrocyte
Where a SMILES comes first, the peptide text is derived from it. [ ]: non-standard residue; d: D form. The star is where a group is joined. Lauroyl = CCCCCCCCCCCC(=O)*; Decanoyl = CCCCCCCCCC(=O)*; Aib = CC(C)(N)C(=O)O; βAla = NCCC(=O)O
measurementKind: IC50 at 1 h

compound="CCCCCCCCCC(=O)NC(C)(C)C(=O)N1CCC[C@H]1C(=O)NC(C)(C)C(=O)NC(C)(C)C(=O)N1CCC[C@H]1C(=O)NC(C)(C)C(=O)NC(C)(C)C(=O)N1CCC[C@H]1C(=O)NC(C)(C)C(=O)NC(C)(C)C(=O)NCCC(=O)N[C@@H](C)C(=O)NC(C)(C)C(=O)NC(C)(C)C(=O)NCCC(=O)NC(C)(C)C(=O)NC(C)(C)C(=O)NC(C)(C)C(=O)N[C@@H](C)C(=O)NCCC(=O)O (Decanoyl-[Aib]P[Aib][Aib]P[Aib][Aib]P[Aib][Aib][βAla]A[Aib][Aib][βAla][Aib][Aib][Aib]A[βAla]-OH)" measurementkind="IC50 at 1 h" result="10 µM"
compound="CCCCCCCCCCCC(=O)NC(C)(C)C(=O)N1CCC[C@H]1C(=O)NC(C)(C)C(=O)NC(C)(C)C(=O)N1CCC[C@H]1C(=O)NC(C)(C)C(=O)NC(C)(C)C(=O)N1CCC[C@H]1C(=O)NC(C)(C)C(=O)NC(C)(C)C(=O)NCCC(=O)N[C@@H](C)C(=O)NC(C)(C)C(=O)NC(C)(C)C(=O)NCCC(=O)NC(C)(C)C(=O)NC(C)(C)C(=O)NC(C)(C)C(=O)N[C@@H](C)C(=O)NCCC(=O)O (Lauroyl-[Aib]P[Aib][Aib]P[Aib][Aib]P[Aib][Aib][βAla]A[Aib][Aib][βAla][Aib][Aib][Aib]A[βAla]-OH)" measurementkind="IC50 at 1 h" result="2 µM"
compound=CCCCCCCCCCCC(=O)NC(C)(C)C(=O)N1CCC[C@H]1C(=O)NC(C)(C)C(=O)NC(C)(C)C(=O)N1CCC[C@H]1C(=O)NC(C)(C)C(=O)NC(C)(C)C(=O)N1CCC[C@H]1C(=O)N[C@@H](C)C(=O)NC(C)(C)C(=O)NCCC(=O)N[C@@H](C)C(=O)NC(C)(C)C(=O)NC(C)(C)C(=O)NCCC(=O)NC(C)(C)C(=O)NC(C)(C)C(=O)NC(C)(C)C(=O)N[C@@H](C)C(=O)NCCC(=O)O measurementkind="IC50 at 1 h" result="1.5 µM"
compound="CCCCCCCCCC(=O)NC(C)(C)C(=O)N1CCC[C@H]1C(=O)NC(C)(C)C(=O)NC(C)(C)C(=O)N1CCC[C@H]1C(=O)NC(C)(C)C(=O)NC(C)(C)C(=O)N1CCC[C@H]1C(=O)N[C@@H](C)C(=O)NC(C)(C)C(=O)NCCC(=O)N[C@@H](C)C(=O)NC(C)(C)C(=O)NC(C)(C)C(=O)NCCC(=O)NC(C)(C)C(=O)NC(C)(C)C(=O)NC(C)(C)C(=O)N[C@@H](C)C(=O)NCCC(=O)O (Decanoyl-[Aib]P[Aib][Aib]P[Aib][Aib]PA[Aib][βAla]A[Aib][Aib][βAla][Aib][Aib][Aib]A[βAla]-OH)" measurementkind="IC50 at 1 h" result="7 µM"
